Biological target: Abl kinase (Homo sapiens, UniProt P00519)
Assay: biochemical
Conditions: Abl IC50 (nM), Abl kinase (Invitrogen, 20 ng/well), Abltide 100 μM, ATP 500 nM, 37° C. for 60 minutes, top concentration 10 uM
Structures can show the parent of a compound that is named as a salt.
Attribute: IC50
A number alone suffices; assume nM.

Exam item: Fill in: IC50 of O=C(c1ccc(Nc2ncc(/C=C/c3cccc4[nH]ncc34)cn2)cc1)N1CCNCC1 [hydrochloride] is ___
Marked response: 20

Exam item: Do the same for NS(=O)(=O)c1cccc(/C=C/c2cnc(Nc3ccc(S(=O)(=O)C4CCNCC4)cc3)nc2)c1 [Hydrochloride] please
Marked response: 198

Exam item: Do the same for O=S(=O)(c1ccc(Nc2ncc(/C=C/c3cccc4[nH]ncc34)cn2)cc1N1CCNCC1)N1CCNCC1 please
Marked response: 20

---

Target: Abl (T315I) (Homo sapiens, UniProt P00519, T315I)
Construct: purchased Upstate
Assay: Abl (T315I) Kinase Assay (KinaseGlo luminescent detection of residual ATP)
Format: biochemical
Conditions: Abl (T315I) IC50 (nM), Abl (T315I) (Upstate, 17 ng/well), Abltide 100 uM, ATP 500 nM, 60 minutes at 37° C.
Experimental: The assay was performed similarly to the Abl kinase assay. Abl (T315I) (Upstate, 17 ng/well); Abltide substrate (100 uM) and ATP (500 nM) comprised the reaction mixture. Compound was similarly diluted, and the reaction plate was incubated for 60 minutes at 37° C.
Readout Kind: IC50
Write your answer as a measured quantity: the number, then the unit.

Nc1nc2ccc(/C=C/c3cnc(Nc4ccc(S(=O)(=O)N5CCNCC5)c(N5CCNCC5)c4)nc3)cc2s1 = 152 nM
O=S(=O)(NCCN1CCCC1)c1ccc(Nc2ncc(/C=C/c3cccc4[nH]ncc34)cn2)cc1 = 133 nM
CN(C)CCN(C1CCNCC1)S(=O)(=O)c1ccc(Nc2ncc(/C=C/c3cccc4[nH]ncc34)cn2)cc1 = 113 nM
O=S(=O)(c1ccc(Nc2ncc(/C=C/c3cc(O)ccc3Cl)cn2)cc1)C1CCNCC1 = 96 nM
Nc1nc2ccc(/C=C/c3cnc(Nc4ccc(S(=O)(=O)N(CCO)C5CCNCC5)cc4)nc3)cc2s1 = 33 nM

Exam item: Fill in: IC50 of COCCN1CCN(S(=O)(=O)c2ccc(Nc3ncc(/C=C/c4ccc5nc(N)sc5c4)cn3)cc2)CC1 is ___
Marked response: 380 nM

Exam item: Do the same for O=S(=O)(c1ccc(Nc2ncc(/C=C/c3cc(F)cc4[nH]nnc34)cn2)cc1)C1CCNCC1 [trifluoroacetate] please
Marked response: 12 nM

---

Biological target: Abl (T315I) (Homo sapiens, UniProt P00519, T315I)
Construct: purchased Upstate
Assay: Abl (T315I) Kinase Assay (KinaseGlo luminescent detection of residual ATP)
Assay type: biochemical
Details: Abl (T315I) IC50 (nM), Abl (T315I) (Upstate, 17 ng/well), Abltide 100 uM, ATP 500 nM, 60 minutes at 37° C.
Counter-ions that a name gives are not always drawn.
Readout Kind: IC50 (nM)
A number alone suffices; assume nM.

O=S(=O)(c1ccc(Nc2ncc(/C=C/c3cccc4[nH]ncc34)cn2)cc1NCCO)N1CCNCC1 = 233
Nc1nc2ccc(/C=C/c3cnc(Nc4ccc(S(=O)(=O)N5CCNCC5CO)cc4)nc3)cc2s1 (stereo not drawn) = 115

Exam item: Fill in: IC50 of O=S(=O)(c1ccc(Nc2ncc(/C=C/c3n[nH]c4ccccc34)cn2)cc1)C1CCNCC1 [Hydrochloride] is ___
Marked response: 202

Exam item: Do the same for C=Cc1cnc(Nc2ccc(S(=O)(=O)N3CCNCC3)c(N3CCNCC3)c2)nc1 [trifluoroacetic acid salt] please
Marked response: 4640

Exam item: Do the same for O=S(=O)(c1ccc(Nc2ncc(/C=C/c3cccc(-c4cn[nH]c4)c3)cn2)cc1)C1CCNCC1 [Hydrochloride] please
Marked response: 1980

Exam item: Do the same for Cc1cc(Nc2ncc(/C=C/c3cccc(O)c3)cn2)cc(C)c1S(=O)(=O)N(C)CCN1CCCC1 please
Marked response: 248

Exam item: Do the same for Nc1nc2ccc(/C=C/c3cnc(Nc4ccc(OC5CCNCC5)cc4)nc3)cc2s1 please
Marked response: 428

Exam item: Do the same for O=S(=O)(c1ccc(Nc2ncc(/C=C/c3cccc(O)c3)cn2)cc1)N1CCC(CCO)CC1 please
Marked response: 160
